// data source = patent US8367873B2

Test system: cereals
Assay: Container trials with cereals in the greenhouse, use of safeners (Mefenpyr 1 day prior to herbicide application)
Assay type: in vivo
Details: summer wheat, 28 days after application, 12.5 g of a.i./ha
A collection of compounds and their measured Summer wheat observed (%)

Compound	Target Of Assay	Summer wheat observed (%)
CCOC(=O)OC1=C(c2c(CC)cc(C)cc2CC)C(=O)[C@@H]2CC3(C[C@H]12)OCCCO3 (relative stereo) [I-c-14]	cereals	40
C=C1COC2(CC3C(=O)C(c4c(CC)cc(C)cc4CC)=C(OC(=O)C(C)C)C3C2)OC1 (stereo not shown) [I-b-13]	cereals	20
CCc1cc(C)cc(C)c1C1=C(O)C2CC3(CC2C1=O)OCCCO3 (stereo not shown) [I-a-58]	cereals	10
CCc1cc(C)cc(CC)c1C1=C(OC(=O)OC(C)C)[C@H]2C[C@]3(COC(C)(C)O3)C[C@H]2C1=O (relative stereo) [I-c-3]	cereals	10
CCOC(=O)OC1=C(c2c(CC)cc(C)cc2CC)C(=O)C2CC3(CC12)OC(C)CC(C)O3 (mixture of isomers) [I-c-10]	cereals	15
CCc1cc(C)cc(CC)c1C1=C(O)[C@H]2CC3(C[C@H]2C1=O)OCCCO3 (relative stereo) [I-a-11]	cereals	10
CCOC(=O)OC1=C(c2c(CC)cc(C)cc2CC)C(=O)[C@@H]2CC3(C[C@H]12)OCCO3 (relative stereo) [I-c-7]	cereals	10
